target: T1, Wild type CD117 purified protein (human, UniProt P10721 26-520, limits assumed); test: summary Table 75 (repeats Table 71)
T1 construct: Protein used in BLI/kinetics and cryo-EM; also called wt CD117; Wt CD117
T1 sequence (P10721 26-520 limits assumed): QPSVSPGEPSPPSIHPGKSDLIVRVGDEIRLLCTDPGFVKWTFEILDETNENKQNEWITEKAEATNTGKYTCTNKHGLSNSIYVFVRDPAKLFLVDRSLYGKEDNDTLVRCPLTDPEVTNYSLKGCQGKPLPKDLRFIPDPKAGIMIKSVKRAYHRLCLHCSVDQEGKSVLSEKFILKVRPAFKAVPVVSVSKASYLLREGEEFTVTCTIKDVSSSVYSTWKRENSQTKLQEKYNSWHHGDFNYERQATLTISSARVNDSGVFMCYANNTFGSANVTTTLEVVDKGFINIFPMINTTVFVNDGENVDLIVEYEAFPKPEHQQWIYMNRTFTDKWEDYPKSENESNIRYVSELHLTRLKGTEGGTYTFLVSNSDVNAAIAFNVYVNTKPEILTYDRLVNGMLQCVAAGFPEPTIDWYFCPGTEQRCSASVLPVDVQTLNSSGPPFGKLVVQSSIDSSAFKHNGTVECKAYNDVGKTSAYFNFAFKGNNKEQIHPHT
MEASUREMENT_TYPE: pKd
Notebook: values listed as pKd are -log10 of the concentration (mol/L).

Input line: Looking for the measured pKd of ABTx206 (antibody, human IgG1, V domains shown) VH: EVQLVESGGGLVQPGRSLRLSCAASGFTFDDYAMHWVRQAPGKGLEWVSGISWNSGTIGYADSVKGRFTNSRDNAKNSLYLEMNSLRAEDTALYYCAKDSPPGYCSSASCYGAFDIRGQGTMVTVSS VL: DIVMTQSPSFLSASVGDRVTITCRASQGISSYLAWYQQKPGKAPKLLIYAASTLQNGVPSRFSGSGSGTDFTLTITSLQPEDFATYYCQQSYSTPYTFGQGTKLEIK , can you help?
Output line: 8.90

Input line: Looking for the measured pKd of ABTx203 (antibody, human IgG1, V domains shown) VH: EVQLVESGGGLVQPGRSLRLSCAASGFTFDDYAMHWVRQAPGKGLEWVSGISWNSGTIGYADSVKGRFTNSRDNAKNSLYLEMNSLRAEDTALYYCAKDWPSGFCSSAYCYGAFDIWGQGTMVTVSS VL: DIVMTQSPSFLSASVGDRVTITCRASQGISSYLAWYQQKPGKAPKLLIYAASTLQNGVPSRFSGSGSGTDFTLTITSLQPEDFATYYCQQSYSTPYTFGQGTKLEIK , can you help?
Output line: 8.18

Input line: Looking for the measured pKd of ABTx198 (antibody, human IgG1, V domains shown) VH: EVQLVESGGGLVQPGRSLRLSCAASGFTFDDYAMHWVRQAPGKGLEWVSGISWNSGTIGYADSVKGRFTNSRDNAKNSLYLEMNSLRAEDTALYYCAKDSPPGYCASASCYGAFDIWGQGTMVTVSS VL: DVVMTQSPGTLSLSPGERATLSCRASQSVSSSYLAWYQQKPGQAPRLLIYGASSRATGIPDRFSGSGSGTDFTLTISRLEPEDFAVYYCQQDSLGLTFGGGTKLEIK , can you help?
Output line: 8.92
